# system: Fc-fusion protein of human PSMA (hPSMA-Fc) (Homo sapiens, UniProt Q04609)
# Construct: purchased Acro Biosystems PSA-H5264
# Sequence (Q04609 44-750 limits assumed): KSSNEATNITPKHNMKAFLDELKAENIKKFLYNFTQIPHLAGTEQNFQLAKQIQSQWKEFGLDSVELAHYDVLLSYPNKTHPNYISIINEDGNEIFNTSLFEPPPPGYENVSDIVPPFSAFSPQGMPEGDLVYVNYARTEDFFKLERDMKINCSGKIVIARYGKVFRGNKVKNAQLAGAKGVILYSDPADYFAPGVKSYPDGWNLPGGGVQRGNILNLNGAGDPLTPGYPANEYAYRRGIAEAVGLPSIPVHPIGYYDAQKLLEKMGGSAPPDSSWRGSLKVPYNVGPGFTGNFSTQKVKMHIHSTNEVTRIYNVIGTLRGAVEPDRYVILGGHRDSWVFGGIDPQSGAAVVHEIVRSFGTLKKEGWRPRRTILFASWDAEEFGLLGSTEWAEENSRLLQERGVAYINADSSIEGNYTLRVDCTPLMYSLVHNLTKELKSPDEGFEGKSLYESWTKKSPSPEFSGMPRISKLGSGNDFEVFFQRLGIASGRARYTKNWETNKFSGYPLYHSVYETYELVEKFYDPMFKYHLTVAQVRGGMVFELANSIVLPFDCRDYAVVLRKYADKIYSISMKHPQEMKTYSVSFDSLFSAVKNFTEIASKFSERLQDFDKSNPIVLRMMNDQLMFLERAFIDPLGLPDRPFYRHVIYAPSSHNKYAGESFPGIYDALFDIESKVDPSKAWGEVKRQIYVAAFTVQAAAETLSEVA
# measurement description: Surface plasmon resonance assay (Biacore T200, single cycle kinetic)
# Assay type: binding
# applied conditions: pKD category for PSMA SPR activity assay, hPSMA-Fc, 25° C.; read-out: pKD CAT (converted)
Bridge positions count the residues as written; N and C are the ends. Square brackets hold non-standard residues; d marks the D form. Peptide text beside a SMILES is read from it. Nle = CCCC[C@H](N)C(=O)O
value kind: Kd

compound	val
CCCC[C@H](NC(=O)[C@@H]1CSSC[C@H](NC(=O)[C@H](Cc2ccccc2)NC(=O)[C@H](C)NC(=O)[C@@H](NC(C)=O)[C@@H](C)O)C(=O)N[C@@H](CCCCN)C(=O)N[C@@H](CCCNC(=N)N)C(=O)N2CCC[C@H]2C(=O)N[C@@H](CC(N)=O)C(=O)N1)C(=O)N[C@H](C(=O)N[C@@H](CC(=O)O)C(N)=O)[C@@H](C)O [PSM-0460] (Ac-TAFCKRPNC[Nle]TD-NH2; disulfide 4-9)	0.0126 to 0.126 µM
